assay: Critical micelle concentration by solubilization of a hydrophobic fluorescent dye; format: physicochemical; conditions: Example 4, Table 3
Where a name gives a salt, the structure may show the parent alone.
Parameter CMC (wt. %): see the listing below.
quantity measured: CMC (wt. %)

>>> recorded_measurement("CC(CCC(=O)N(C)CCCN(C)C(=O)CCC(C)C1CCC2C3CCC4CC(OC5OC(CO)C(OC6OC(CO)C(O)C(O)C6O)C(O)C5O)CCC4(C)C3CC(OC3OC(CO)C(OC4OC(CO)C(O)C(O)C4O)C(O)C3O)C12C)C1CCC2C3CCC4CC(OC5OC(CO)C(OC6OC(CO)C(O)C(O)C6O)C(O)C5O)CCC4(C)C3CC(OC3OC(CO)C(OC4OC(CO)C(O)C(O)C4O)C(O)C3O)C12C (stereo not shown) [TFA-4a]")
0.0030
>>> recorded_measurement("CCCCN(CCCN(CCCC)C(=O)CCC(C)C1CCC2C3CCC4CC(OC5OC(CO)C(OC6OC(CO)C(O)C(O)C6O)C(O)C5O)CCC4(C)C3CC(OC3OC(CO)C(OC4OC(CO)C(O)C(O)C4O)C(O)C3O)C12C)C(=O)CCC(C)C1CCC2C3CCC4CC(OC5OC(CO)C(OC6OC(CO)C(O)C(O)C6O)C(O)C5O)CCC4(C)C3CC(OC3OC(CO)C(OC4OC(CO)C(O)C(O)C4O)C(O)C3O)C12C (stereo not shown) [TFA-9a]")
0.0022
>>> recorded_measurement("CCCCCN(CCCN(CCCCC)C(=O)CCC(C)C1CCC2C3CCC4CC(OC5OC(CO)C(OC6OC(CO)C(O)C(O)C6O)C(O)C5O)CCC4(C)C3CC(OC3OC(CO)C(OC4OC(CO)C(O)C(O)C4O)C(O)C3O)C12C)C(=O)CCC(C)C1CCC2C3CCC4CC(OC5OC(CO)C(OC6OC(CO)C(O)C(O)C6O)C(O)C5O)CCC4(C)C3CC(OC3OC(CO)C(OC4OC(CO)C(O)C(O)C4O)C(O)C3O)C12C (stereo not shown) [TFA-10a]")
0.0009
>>> recorded_measurement("CCN(CCCN(CC)C(=O)CCC(C)C1CCC2C3CCC4CC(OC5OC(CO)C(OC6OC(CO)C(O)C(O)C6O)C(O)C5O)CCC4(C)C3CC(OC3OC(CO)C(OC4OC(CO)C(O)C(O)C4O)C(O)C3O)C12C)C(=O)CCC(C)C1CCC2C3CCC4CC(OC5OC(CO)C(OC6OC(CO)C(O)C(O)C6O)C(O)C5O)CCC4(C)C3CC(OC3OC(CO)C(OC4OC(CO)C(O)C(O)C4O)C(O)C3O)C12C (stereo not shown) [TFA-7a]")
0.0028
